We begin with a simple list: items and their reported PBM 8-mer E-score.
- Tested on: MvaT
- experiment_notes: PBM 8-mer E-score (mean of HK and ME arrays) (E-score (dimensionless, -0.5 to 0.5)); higher = stronger relative binding preference
Over roughly 33,000 sequences, “E-score (dimensionless, -0.5 to 0.5)” has its median near -0.058; the highest 2% begin near 0.35. The sample holds the highest values, similar sequences and a random draw of the others, so the mix is not that of the screen.

input_sequence | tested_target | PBM 8-mer E-score
TAATACCA | MvaT | 0.336

Data request: I am curious: what PBM 8-mer E-score value has been reported for TGTTTAAA ?
Data returned: 0.387

Data request: Now consider AAATATGC .
Data returned: 0.305

Data request: Now consider AATTTAAG .
Data returned: 0.271

Data request: Now consider GCAACGAC .
Data returned: -0.141

Data request: Now consider CACTATTA .
Data returned: 0.357

Data request: Now consider AACTATTC .
Data returned: 0.255

Data request: Now consider AACGTTTG .
Data returned: 0.0612

Data request: Now consider CCGGTAAA .
Data returned: 0.0751
